Target: T1, AnkG_MBD 'site-2' mutant (Ile277Gln, Leu310Gln) (rat, UniProt O70511-1 38-855, Ile277Gln | Leu310Gln)
T1 sequence: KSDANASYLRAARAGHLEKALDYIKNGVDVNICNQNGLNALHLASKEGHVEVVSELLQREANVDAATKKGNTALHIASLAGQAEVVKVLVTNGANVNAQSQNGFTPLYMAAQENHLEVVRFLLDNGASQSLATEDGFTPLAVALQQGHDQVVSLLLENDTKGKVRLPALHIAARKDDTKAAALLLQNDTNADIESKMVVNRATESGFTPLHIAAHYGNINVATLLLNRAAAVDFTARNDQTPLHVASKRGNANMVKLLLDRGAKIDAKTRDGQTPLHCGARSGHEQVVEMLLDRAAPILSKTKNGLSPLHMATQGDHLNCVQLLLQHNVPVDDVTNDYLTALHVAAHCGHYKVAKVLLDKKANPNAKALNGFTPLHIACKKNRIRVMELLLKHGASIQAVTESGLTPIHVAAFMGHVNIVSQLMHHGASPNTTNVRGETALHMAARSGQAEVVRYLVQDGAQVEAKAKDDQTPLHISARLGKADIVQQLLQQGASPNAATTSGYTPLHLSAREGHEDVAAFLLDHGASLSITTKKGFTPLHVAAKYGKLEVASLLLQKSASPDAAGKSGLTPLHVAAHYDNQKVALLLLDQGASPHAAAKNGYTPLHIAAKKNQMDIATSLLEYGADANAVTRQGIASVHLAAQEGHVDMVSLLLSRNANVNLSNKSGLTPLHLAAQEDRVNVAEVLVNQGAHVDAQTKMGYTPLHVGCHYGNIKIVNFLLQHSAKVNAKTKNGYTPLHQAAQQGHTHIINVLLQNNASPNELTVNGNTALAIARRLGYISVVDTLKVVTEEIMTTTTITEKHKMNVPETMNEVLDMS
Assay: ITC
pKd: −log10 of the molar value.
readout_type: pKd

> print(dat)
                                     binder  result.number
1  AnkG linker ΔAI-c (aa 861–920) (domain or fragment) KASAPEKLSDGEYISDGEEGEDAITGDTDKYLGPQDLKELGDDSLPAEGYVGFSLGARSA           5.41
